- Tested on: Bacillus subtilis
- Procedure details: Antibacterial activity against Bacillus subtilis after 24-48 hrs by microdilution susceptibility test
- Assay type: functional
Measured metric: MIC (µg/mL)

INSERT INTO results (smiles_representation, value_unit, measured_result) VALUES
  ('NC1=Nc2ccccc2NC=C1C(=O)Nc1nc2ccccc2s1', 'µg/mL', 6.25),
  ('CN(C)/C=C(\C#N)C(=O)Nc1nc2ccccc2s1', 'µg/mL', 100),
  ('CN[C@@H]1[C@H](O[C@H]2[C@H](O[C@H]3[C@H](O)[C@@H](O)[C@H](N=C(N)N)[C@@H](O)[C@@H]3N=C(N)N)O[C@@H](C)[C@]2(O)C=O)O[C@@H](CO)[C@H](O)[C@H]1O', 'µg/mL', 3.12);

* * *

- Tested on: Bacillus subtilis
- Procedure details: Antibacterial activity against Bacillus subtilis after 24-48 hrs by microdilution susceptibility test
- Format: functional
Measured metric: MIC (µg/mL)

INSERT INTO assay_data (smiles_representation, measured_result) VALUES
  ('N#C/C(=C\NN)C(=O)Nc1nc2ccccc2s1', 100),
  ('O=C(N[C@H](CO)[C@H](O)c1ccc([N+](=O)[O-])cc1)C(Cl)Cl', 6.25),
  ('N=c1c(C(=O)Nc2nc3ccccc3s2)cnc2sccn12', 12.5),
  ('N#Cc1cncn(-c2nc3ccccc3s2)c1=O', 12.5),
  ('N#C/C(=C/N)C(=O)Nc1nc2ccccc2s1', 100),
  ('N=c1c(C(=O)Nc2nc3ccccc3s2)cnc2ccccn12', 6.25);

* * *

- Tested on: Bacillus subtilis
- Procedure details: Antibacterial activity against Bacillus subtilis after 24-48 hrs by microdilution susceptibility test
- Assay type: functional
Measured metric: MIC (mg/L)

INSERT INTO assay_data (smiles_representation, measured_metric, measured_result) VALUES
  ('Nc1c(C(=O)Nc2nc3ccccc3s2)cnc2nnnn12', 'MIC', 3.12),
  ('Nc1c(C(=O)Nc2nc3ccccc3s2)cnn1-c1ccccc1', 'MIC', 12.5),
  ('Nc1[nH]ncc1C(=O)Nc1nc2ccccc2s1', 'MIC', 12.5),
  ('Nc1ncc(C(=O)Nc2nc3ccccc3s2)c(N)n1', 'MIC', 12.5),
  ('Nc1oncc1C(=O)Nc1nc2ccccc2s1', 'MIC', 50),
  ('N#C/C(=C\NNc1ccccc1)C(=O)Nc1nc2ccccc2s1', 'MIC', 100);

* * *

- System: Bacillus thuringiensis
- Procedure details: Antibacterial activity against Bacillus thuringiensis after 24-48 hrs by microdilution susceptibility test
- Assay type: functional
Recorded measurements of MIC, one per entry
Measured metric: MIC

INSERT INTO measurements (smiles_representation, test_system, measured_result) VALUES
  ('Nc1c(C(=O)Nc2nc3ccccc3s2)cnc2nnnn12', 'Bacillus thuringiensis', '12.5 µg/mL'),
  ('N=c1c(C(=O)Nc2nc3ccccc3s2)cnc2sccn12', 'Bacillus thuringiensis', '25 µg/mL'),
  ('CN(C)/C=C(\C#N)C(=O)Nc1nc2ccccc2s1', 'Bacillus thuringiensis', '25 µg/mL');
